- Test: Caco-2 permeability study
- Type: in vitro ADME
- Condition parameters: human
Reported endpoint: Papp A→B (×10⁻⁶ cm/s)
// return numeric value only (unit: ×10⁻⁶ cm/s, not printed)

Any idea what Papp A→B was measured for Cc1ccc(C(=O)Nc2cc(Br)ccc2C(=O)O)cc1S(=O)(=O)Nc1ccc(Cl)c(Cl)c1 [Compound 20c] ?
29.2

###

- Test: Protein binding study
- Assay type: in vitro ADME
Reported endpoint: fraction unbound
Output spec: single numeric token, no unit.

Any idea what fraction unbound was measured for Cc1ccc(C(=O)Nc2cc(Br)ccc2C(=O)O)cc1S(=O)(=O)Nc1ccc(Cl)c(Cl)c1 [Compound 20c] ?
0.002
